# TARGET: T1, Recombinant Human DLL3 Protein (amino acids Ala27-Ala479, cat #9749-DL, R&D Systems) (human, UniProt Q9NYJ7 27-479)
# T1 construct: Bought protein
# T1 sequence: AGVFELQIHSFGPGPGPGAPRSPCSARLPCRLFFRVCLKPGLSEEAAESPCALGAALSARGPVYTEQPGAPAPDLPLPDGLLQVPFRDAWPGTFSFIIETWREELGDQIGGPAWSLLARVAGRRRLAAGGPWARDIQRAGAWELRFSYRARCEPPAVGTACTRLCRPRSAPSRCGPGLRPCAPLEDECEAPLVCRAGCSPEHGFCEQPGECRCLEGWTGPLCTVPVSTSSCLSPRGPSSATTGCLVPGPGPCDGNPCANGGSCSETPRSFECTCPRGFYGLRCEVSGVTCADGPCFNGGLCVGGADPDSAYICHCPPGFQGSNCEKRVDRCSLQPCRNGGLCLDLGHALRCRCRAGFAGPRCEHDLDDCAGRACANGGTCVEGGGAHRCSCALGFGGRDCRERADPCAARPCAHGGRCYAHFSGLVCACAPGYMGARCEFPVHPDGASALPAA
# EXPERIMENT: BLI, Octet HTX, 25 C; mAb on anti-mouse Fc sensors, DLL3 as analyte from 200 nM
QUANTITY NAME: pKd
The quantity pKd is defined as the negative base-10 logarithm of the molar concentration.

Briefly, pKd measured for E9 (antibody, V domains shown, Purified hybridoma monoclonal antibody (Ablexis AlivaMab Kappa mice); loaded on anti-mouse Fc sensors in BLI) VH: QVQLVQSGAEVKKPGASVKVSCKASGYTFTSYYMHWVRQAPGQGLEWMGVINSSGGSTSYAQKFQGRVTMTRDTSTSTVYMDLSSLRSEDTAVYYCARGYCTNGVYYDEDFDYWGQGTLVTVSS VL: DIQMTQSPSSLSASVGDRVTITCRASQGISHYLAWFQQKPGKAPTSLIYAASSLQSGVPSKFSGSGSGTDFTLTISSLQPEDFATYYCQQYNSYPLTFGGGTKVEIK : 9.52

Entry source: patent US20240216557A1
